- Target entity: IDH1 R132H enzyme (Homo sapiens (Human), UniProt O75874, R132H)
- Sequence (O75874 whole entry R132H): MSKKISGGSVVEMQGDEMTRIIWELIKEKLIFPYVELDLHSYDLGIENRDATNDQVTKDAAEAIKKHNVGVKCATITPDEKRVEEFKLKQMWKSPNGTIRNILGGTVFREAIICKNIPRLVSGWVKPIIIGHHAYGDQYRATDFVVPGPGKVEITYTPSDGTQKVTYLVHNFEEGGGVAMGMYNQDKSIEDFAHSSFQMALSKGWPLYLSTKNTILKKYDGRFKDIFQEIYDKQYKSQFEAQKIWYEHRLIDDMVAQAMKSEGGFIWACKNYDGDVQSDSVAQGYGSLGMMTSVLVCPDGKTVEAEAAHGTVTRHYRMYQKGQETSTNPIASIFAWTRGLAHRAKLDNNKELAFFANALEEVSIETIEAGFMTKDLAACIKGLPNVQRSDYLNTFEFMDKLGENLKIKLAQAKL
- Protocol summary: Mutant IDH1 R132H biochemical assay; further: 1.5 nM enzyme
- Settings: NADPH consumption, luminescent readout, 250 μM α-KG, 1 μM NADPH, 32° C., 30 minutes, test range 0.002-10 μM
pIC50: −log10 of the molar value.
Reported endpoint: pIC50

Short answer for C[C@@H]1C[C@H](n2c(Nc3ccc(OC(F)(F)F)cc3)nc3ccc(C(=O)NCCC(=O)O)cc32)CC(C)(C)C1 (racemic) : pIC50 was ≤ 5.00

// recorded pIC50 for C[C@@H]1C[C@H](n2c(Nc3ccc(OC(F)(F)F)cc3)nc3ccc(C(=O)NCCO)cc32)CC(C)(C)C1 (racemic) : 5.66

Noted for C[C@@H]1C[C@H](n2c(Nc3ccc(OC(F)(F)F)cc3)nc3ccc(C(=O)NCc4ccc(F)cc4)cc32)CC(C)(C)C1 (racemic) : its pIC50 reads ≤ 5.00

----------
- Target entity: IDH1 R132H enzyme (Homo sapiens (Human), UniProt O75874, R132H)
- Protocol summary: Mutant IDH1 R132H biochemical assay; further: 1.5 nM enzyme
- Settings: NADPH consumption, luminescent readout, 250 μM α-KG, 1 μM NADPH, 32° C., 30 minutes, test range 0.002-10 μM
Reported endpoint: pIC50
Scale for pIC50: -log10 of concentration given in mol/L; no unit attached.

Form field pIC50, entry C[C@@H]1C[C@H](n2c(Nc3ccc(OC(F)(F)F)cc3)nc3ccc(C(=O)N(C)C)cc32)CC(C)(C)C1 (single isomer, unassigned; enantiomer b) [Example 2-20-2] : 6.70

pIC50 in this record for C[C@H]1C[C@H](n2c(Nc3ccc(OC(F)(F)F)cc3)nc3ccc(C(=O)N(C)C)cc32)CC(C)(C)C1 (racemic) [Example 2-25] : 6.33

So, CNC(=O)c1ccc2nc(Nc3ccc(OC(F)(F)F)cc3)n([C@H]3C[C@@H](C)CC(C)(C)C3)c2c1 (racemic) [Example 2-8] ? Its pIC50 was 6.37

Lookup result for C[C@@H]1C[C@H](n2c(Nc3ccc(OC(F)(F)F)cc3)nc3ccc(C(=O)N(C)C)cc32)CC(C)(C)C1 (racemic) [Example 2-20] ; measured pIC50: 7.00

----------
- Test system: LN229 R132H cells overexpressing mutated isocitrate dehydrogenase (mIDH)
- Protocol summary: Mutant IDH1 cellular assay (2-HG levels in medium)
- Assay type: cell-based
- Settings: 2-HG in medium of LN229 R132H cells, 24 hours incubation, fluorescence readout
Reported endpoint: pIC50
Keep in mind that pIC50 stands for -log10 of concentration in molar terms.

// pIC50 value for C[C@@H]1C[C@H](n2c(Nc3ccc(OC(F)(F)F)cc3)nc3ccc(C(=O)N(C)C)cc32)CC(C)(C)C1 (single isomer, unassigned; enantiomer b) [Example 2-20-2] : 5.37

// pIC50 value for C[C@@H]1C[C@H](n2c(Nc3ccc(OC(F)(F)F)cc3)nc3ccc(C(=O)N4CCOCC4)cc32)CC(C)(C)C1 (single isomer, unassigned; enantiomer a) [Example 2-16-1] : 6.30

Sure, the documented pIC50 for C[C@@H]1C[C@H](n2c(Nc3ccc(OC(F)(F)F)cc3)nc3ccc(C(=O)N(C)C)cc32)CC(C)(C)C1 (single isomer, unassigned; enantiomer a) [Example 2-20-1] is 5.74
